src = patent US20100260765A1

molecular target: KDR (human, UniProt P35968 20-1356); test: cell-based or functional assay
Sequence (P35968 20-1356): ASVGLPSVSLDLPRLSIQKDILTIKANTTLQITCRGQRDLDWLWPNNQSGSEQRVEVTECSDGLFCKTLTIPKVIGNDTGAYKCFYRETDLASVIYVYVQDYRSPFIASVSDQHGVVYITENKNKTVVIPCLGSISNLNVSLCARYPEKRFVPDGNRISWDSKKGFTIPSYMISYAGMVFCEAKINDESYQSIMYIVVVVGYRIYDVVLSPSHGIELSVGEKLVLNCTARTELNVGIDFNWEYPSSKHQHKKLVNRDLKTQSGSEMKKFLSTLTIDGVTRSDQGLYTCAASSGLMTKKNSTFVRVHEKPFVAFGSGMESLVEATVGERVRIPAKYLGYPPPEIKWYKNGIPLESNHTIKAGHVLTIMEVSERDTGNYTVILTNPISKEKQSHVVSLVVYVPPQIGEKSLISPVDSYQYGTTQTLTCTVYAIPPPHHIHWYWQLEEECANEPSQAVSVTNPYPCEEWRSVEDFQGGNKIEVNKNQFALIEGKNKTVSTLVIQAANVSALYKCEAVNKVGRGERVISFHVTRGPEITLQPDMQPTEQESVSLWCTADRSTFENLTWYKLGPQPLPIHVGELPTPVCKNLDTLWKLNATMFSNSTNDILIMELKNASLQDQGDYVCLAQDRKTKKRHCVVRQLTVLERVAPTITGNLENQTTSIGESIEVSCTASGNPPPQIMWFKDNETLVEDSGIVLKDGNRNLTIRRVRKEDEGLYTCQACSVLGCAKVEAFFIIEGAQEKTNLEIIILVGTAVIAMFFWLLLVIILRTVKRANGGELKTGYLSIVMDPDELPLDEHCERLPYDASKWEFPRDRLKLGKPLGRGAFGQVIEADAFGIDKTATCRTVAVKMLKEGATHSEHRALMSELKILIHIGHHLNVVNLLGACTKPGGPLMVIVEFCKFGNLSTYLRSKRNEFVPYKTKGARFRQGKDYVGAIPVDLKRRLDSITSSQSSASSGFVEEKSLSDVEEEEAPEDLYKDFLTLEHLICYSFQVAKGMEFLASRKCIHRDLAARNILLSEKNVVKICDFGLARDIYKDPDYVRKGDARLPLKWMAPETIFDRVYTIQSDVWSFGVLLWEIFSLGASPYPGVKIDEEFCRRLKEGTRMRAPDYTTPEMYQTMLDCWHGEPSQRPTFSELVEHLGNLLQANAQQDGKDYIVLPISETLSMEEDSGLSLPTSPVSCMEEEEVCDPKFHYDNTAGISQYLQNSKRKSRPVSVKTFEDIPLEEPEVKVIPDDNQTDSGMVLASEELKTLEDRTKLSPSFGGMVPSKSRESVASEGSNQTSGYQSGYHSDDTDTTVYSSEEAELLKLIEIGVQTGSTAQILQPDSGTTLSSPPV
MEASURED_ENDPOINT: Activity at 133 nM (% Inhibition), 24-hour Pre-incubation at 37° C., N = 1

Which Activity at 133 nM (% Inhibition), 24-hour Pre-incubation at 37° C., N = 1 value belongs to 27A3 (antibody, V domains shown) VH: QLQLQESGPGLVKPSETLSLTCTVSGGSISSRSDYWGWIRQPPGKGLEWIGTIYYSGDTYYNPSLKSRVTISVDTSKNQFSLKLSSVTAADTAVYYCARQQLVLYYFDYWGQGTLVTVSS VL: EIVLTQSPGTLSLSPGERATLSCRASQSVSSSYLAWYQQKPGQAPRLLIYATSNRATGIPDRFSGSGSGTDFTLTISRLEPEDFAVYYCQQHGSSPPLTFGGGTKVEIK ? 19%

Which Activity at 133 nM (% Inhibition), 24-hour Pre-incubation at 37° C., N = 1 value belongs to 1G6 (antibody, V domains shown) VH: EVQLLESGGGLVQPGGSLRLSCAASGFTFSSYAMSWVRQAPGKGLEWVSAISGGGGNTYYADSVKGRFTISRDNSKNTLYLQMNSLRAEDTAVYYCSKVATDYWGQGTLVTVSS VL: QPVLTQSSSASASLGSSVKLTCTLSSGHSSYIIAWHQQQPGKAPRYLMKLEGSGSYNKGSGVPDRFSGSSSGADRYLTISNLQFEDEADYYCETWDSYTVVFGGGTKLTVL ? 25%

Which Activity at 133 nM (% Inhibition), 24-hour Pre-incubation at 37° C., N = 1 value belongs to 33E1 (antibody, V domains shown) VH: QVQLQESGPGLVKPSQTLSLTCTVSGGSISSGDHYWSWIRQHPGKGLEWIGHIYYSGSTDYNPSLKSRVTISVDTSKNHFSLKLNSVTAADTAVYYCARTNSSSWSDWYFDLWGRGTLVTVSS VL: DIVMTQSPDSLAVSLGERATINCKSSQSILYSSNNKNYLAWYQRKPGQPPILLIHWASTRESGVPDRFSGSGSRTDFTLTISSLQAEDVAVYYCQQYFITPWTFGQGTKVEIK ? 85%
